compounds and their reported pIC50
tested on: WI-38 (human normal lung fibroblast) cells; experiment: Cytotoxicity (MTT) assay, WI-38 (Example 5); type: cell-based; conditions: 72-hour incubation, 1% FBS
Lab note — pIC50 values are minus log10 of concentrations in M.

{"columns": ["COMPOUND", "SYSTEM TESTED", "pIC50"],
 "data": [
  ["COc1ccccc1C1[C@@H](C(=O)O)[C@@H](c2ccccc2OC)[C@@H]1C(=O)Oc1cccc(-c2ccc(F)cc2)c1 (mixture of isomers)", "WI-38 (human normal lung fibroblast) cells", 4.56]
]}

Request the reported pIC50 associated with COc1ccccc1C1[C@@H](C(=O)O)[C@@H](c2ccccc2OC)[C@@H]1C(=O)Oc1cccc(-c2ccc3c(c2)OCCO3)c1 (mixture of isomers)
4.31

Reported pIC50, compound COc1ccccc1[C@H]1[C@H](C(=O)O)[C@H](c2ccccc2OC)[C@H]1C(=O)OCc1cccc2ccccc12 (racemic) : ____
4.69

* * *

Consider the following compounds and their measured IC50 readings.
system: PC3 cells; experiment: MTT cytotoxicity and taxane combination (CI) analysis, PC3 (Example 6); assay type: cell-based, human; details: Homo sapiens, PC-3; MTT, 72-hour incubation, single agent
Number only, in µM; omit the unit.

{"columns": ["COMPOUND", "UNIT SPEC", "MEASURED RESULT"],
 "data": [
  ["COc1ccccc1[C@H]1[C@H](C(=O)O)[C@H](c2ccccc2OC)[C@H]1C(=O)Oc1cccc2ccccc12 (racemic)", "µM", 11.4]
]}

# value lookup — system PC3 cells, readout IC50, item COc1ccccc1[C@H]1[C@H](C(=O)O)[C@H](c2ccccc2OC)[C@H]1C(=O)OCC1c2ccccc2-c2ccccc21 (racemic)
6.3

* * *

experiment: MTT cytotoxicity, WI-38 (Example 6); assay type: cell-based; conditions: human, WI-38 cells (normal lung cell line), 72-hour incubation
Measured IC50 at 72 h, listed per entry for reference.
Field note: include the unit after the figure.

{"columns": ["COMPOUND", "MEASURED RESULT"],
 "data": [
  ["COc1ccccc1[C@H]1[C@H](C(=O)O)[C@H](c2ccccc2OC)[C@H]1C(=O)OCC1c2ccccc2-c2ccccc21 (racemic) [Compound 1w]", "29.6 µM"]
]}

Could you now look at the following compound, please?
Tell me the measured IC50 at 72 h of COc1ccccc1[C@H]1[C@H](C(=O)O)[C@H](c2ccccc2OC)[C@H]1C(=O)Oc1cccc2ccccc12 (racemic) [Compound 1y] , please.
29.4 µM

* * *

target: UniProt:O15540; assay: FABP7 fluorescent probe displacement binding assay; conditions: average ± S.E. of at least three independent experiments
Sequence (O15540 whole entry): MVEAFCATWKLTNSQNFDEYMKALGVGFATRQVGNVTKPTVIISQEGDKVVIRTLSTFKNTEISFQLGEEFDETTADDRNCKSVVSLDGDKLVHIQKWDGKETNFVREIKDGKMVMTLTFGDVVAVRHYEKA
MEASURED METRIC: Ki (nM)
Report as a plain number; the unit nM is understood.

Entry COc1ccccc1[C@H]1[C@H](C(=O)O)[C@H](c2ccccc2OC)[C@H]1C(=O)Oc1cccc2ccccc12 (racemic) [Compound 1y] : reported Ki = ?
670

* * *

Measured IC50 at 72 h by item
assay: MTT cytotoxicity, RWPE-1 (Example 6); assay type: cell-based; details: human, RWPE-1 cells (normal prostate cell line), 72-hour incubation
The reply must contain the numeric value and, after it, the unit.

{"columns": ["COMPOUND", "MEASURED RESULT"],
 "data": [
  ["COc1ccccc1[C@H]1[C@H](C(=O)O)[C@H](c2ccccc2OC)[C@H]1C(=O)OCC1c2ccccc2-c2ccccc21 (racemic) [Compound 1w]", "20.6 µM"]
]}

Fill blank: measured IC50 at 72 h of the compound COc1ccccc1[C@H]1[C@H](C(=O)O)[C@H](c2ccccc2OC)[C@H]1C(=O)Oc1cccc2ccccc12 (racemic) [Compound 1y] is ____.
26 µM

Attribution: patent US20230365488A1
